# target.system: A. suum complex II (Ascaris suum, UniProt O44074+P92506+P92507)
# Construct: from tissue; host or cells: A. suum mitochondrial fraction
# Sequence (O44074 22-282): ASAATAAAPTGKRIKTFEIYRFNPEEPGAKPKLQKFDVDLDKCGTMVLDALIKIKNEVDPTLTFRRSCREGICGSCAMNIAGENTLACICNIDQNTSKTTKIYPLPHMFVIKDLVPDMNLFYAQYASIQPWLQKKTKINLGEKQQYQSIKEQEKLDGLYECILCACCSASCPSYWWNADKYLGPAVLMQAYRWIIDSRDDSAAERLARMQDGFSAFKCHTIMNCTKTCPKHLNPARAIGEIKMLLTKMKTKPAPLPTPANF
# Sequence (P92506 32-188): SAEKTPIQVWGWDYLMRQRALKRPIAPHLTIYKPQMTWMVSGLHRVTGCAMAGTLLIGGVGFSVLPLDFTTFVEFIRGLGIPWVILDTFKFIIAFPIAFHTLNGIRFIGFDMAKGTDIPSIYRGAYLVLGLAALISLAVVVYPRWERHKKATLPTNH
# Sequence (P92507 26-156): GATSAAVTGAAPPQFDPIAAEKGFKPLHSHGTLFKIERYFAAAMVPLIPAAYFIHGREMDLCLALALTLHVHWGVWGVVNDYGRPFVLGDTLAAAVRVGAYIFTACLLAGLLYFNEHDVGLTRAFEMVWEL
# Sequence (Q33862 19-645 partner): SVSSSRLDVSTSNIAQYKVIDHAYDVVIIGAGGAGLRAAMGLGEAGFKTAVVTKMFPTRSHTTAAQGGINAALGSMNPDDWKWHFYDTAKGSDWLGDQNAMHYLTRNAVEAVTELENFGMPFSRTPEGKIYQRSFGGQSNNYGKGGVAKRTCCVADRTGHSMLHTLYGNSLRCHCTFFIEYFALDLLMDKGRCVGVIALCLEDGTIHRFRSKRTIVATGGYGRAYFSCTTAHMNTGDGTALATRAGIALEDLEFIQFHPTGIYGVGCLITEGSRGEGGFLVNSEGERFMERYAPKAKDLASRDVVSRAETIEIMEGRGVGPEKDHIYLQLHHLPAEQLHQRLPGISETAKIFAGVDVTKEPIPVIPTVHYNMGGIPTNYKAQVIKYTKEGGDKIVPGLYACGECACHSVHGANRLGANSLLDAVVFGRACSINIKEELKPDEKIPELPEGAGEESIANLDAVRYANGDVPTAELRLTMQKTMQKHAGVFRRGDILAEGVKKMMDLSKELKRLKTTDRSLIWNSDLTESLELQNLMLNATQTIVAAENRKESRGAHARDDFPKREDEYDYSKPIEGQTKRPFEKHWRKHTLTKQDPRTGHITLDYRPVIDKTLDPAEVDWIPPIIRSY
# protocol.summary: Complex II activity of A. suum mitochondrial fraction
# Format: biochemical
recorded.endpoint: IC50 (µM)

{"compound": "CC(=O)c1cc(Cl)c(O)c(C/C=C(\\C)CCC=C(C)C)c1O [Compound D5]", "recorded.endpoint": "IC50", "observed.result": 11}

====

# target.system: complex II (succinate:quinone reductase, SQR) (Echinococcus multilocularis, UniProt A0A1Z4EAW8+A0A1Z4EAX0+A0A1Z4EAX1)
# Sequence (A0A1Z4EAV8 entry or part of it): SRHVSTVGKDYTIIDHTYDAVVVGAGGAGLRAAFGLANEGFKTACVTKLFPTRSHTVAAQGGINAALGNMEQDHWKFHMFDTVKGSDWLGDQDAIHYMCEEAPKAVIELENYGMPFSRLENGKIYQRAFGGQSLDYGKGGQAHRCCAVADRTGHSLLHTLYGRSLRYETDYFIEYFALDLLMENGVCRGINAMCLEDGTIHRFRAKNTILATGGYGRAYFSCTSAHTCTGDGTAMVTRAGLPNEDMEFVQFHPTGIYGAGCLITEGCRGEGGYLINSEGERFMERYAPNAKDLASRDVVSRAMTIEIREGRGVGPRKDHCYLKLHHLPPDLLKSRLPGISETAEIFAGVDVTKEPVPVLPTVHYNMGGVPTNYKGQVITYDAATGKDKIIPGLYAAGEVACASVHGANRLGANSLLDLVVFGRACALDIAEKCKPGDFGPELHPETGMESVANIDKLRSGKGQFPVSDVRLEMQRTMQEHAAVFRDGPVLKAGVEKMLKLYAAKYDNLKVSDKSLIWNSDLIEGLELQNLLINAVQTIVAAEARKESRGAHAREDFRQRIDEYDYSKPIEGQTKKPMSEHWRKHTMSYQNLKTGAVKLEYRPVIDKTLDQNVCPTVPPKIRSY
# Sequence (A0A1Z4EAX1 entry or part of it): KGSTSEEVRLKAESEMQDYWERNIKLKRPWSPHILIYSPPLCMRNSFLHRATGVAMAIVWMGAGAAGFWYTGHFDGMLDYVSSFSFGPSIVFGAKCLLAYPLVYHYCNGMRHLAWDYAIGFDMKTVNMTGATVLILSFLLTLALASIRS
# Sequence (A0A1Z4EAX0 entry or part of it): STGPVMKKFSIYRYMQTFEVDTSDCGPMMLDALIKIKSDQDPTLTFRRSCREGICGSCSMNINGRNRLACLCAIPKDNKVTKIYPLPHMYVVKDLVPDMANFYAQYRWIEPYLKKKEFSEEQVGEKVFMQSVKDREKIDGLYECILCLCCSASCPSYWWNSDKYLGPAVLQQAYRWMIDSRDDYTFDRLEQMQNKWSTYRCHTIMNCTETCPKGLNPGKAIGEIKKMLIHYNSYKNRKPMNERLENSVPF
# Sequence (A0A1Z4EAW8 entry or part of it): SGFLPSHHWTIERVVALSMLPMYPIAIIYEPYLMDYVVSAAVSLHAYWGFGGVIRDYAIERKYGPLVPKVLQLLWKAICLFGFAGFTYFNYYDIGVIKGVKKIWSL
# protocol.summary: Succinate:quinone reductase (SQR) activity (complex II) in protoscoleces mitochondrial fraction
# Format: biochemical
# condition.details: IC50, inhibition of E. multilocularis SQR, Table 4, different linker structures; mean ± SEM
# Procedure: Cyst tissues containing E. multilocularis (Nemuro strain) protoscoleces isolated from infected hispid cotton rats, Sigmodon hispidus, were used. The tissues were shredded through a metal mesh (0.5 mm diameter). […] NADH:quinone reductase activity (complex I), succinate:quinone reductase activity (complex II), and succinate:cytochrome c reductase activity (complexes II to III) were measured using a UV-3000 spectrophotometer (Shimadzu, Kyoto, Japan) as described previously ([4], [6]). […]
Measured IC50, listed per entry.

{"compound": "CC(C)=CCC/C(C)=C/Cc1c(O)c(Cl)c(C)c(C=O)c1O", "IC50 (nM)": 570}
{"compound": "CCCCCC(C)CCc1c(O)c(Cl)c(C)c(C=O)c1O (stereo not shown)", "IC50 (nM)": 540}
{"compound": "Cc1c(Cl)c(O)c(CCC(C)CCCC(C)C)c(O)c1C=O (stereo not shown)", "IC50 (nM)": 280}
{"compound": "CCCCCCCCc1c(O)c(Cl)c(C)c(C=O)c1O", "IC50 (nM)": 890}

====

# target.system: A. suum complex II (Ascaris suum, UniProt O44074+P92506+P92507)
# Construct: from tissue; host or cells: A. suum mitochondrial fraction
# protocol.summary: Complex II activity of A. suum mitochondrial fraction
# Assay type: biochemical
# condition.details: A. suum mitochondrial fraction; read-out: IC50 against A. suum complex II

{"compound": "CC(C)(C)c1ccc(CNC(=O)c2ccccc2C(F)(F)F)cc1 [NN23, reference compound]", "unit.string": "nM", "IC50": 5}

====

Let's look at some compounds and their measured pIC50.
# target.system: complex II (succinate:quinone reductase, SQR) (Echinococcus multilocularis, UniProt A0A1Z4EAW8+A0A1Z4EAX0+A0A1Z4EAX1)
# protocol.summary: Succinate:quinone reductase (SQR) activity (complex II) in protoscoleces mitochondrial fraction
# Assay type: biochemical
# condition.details: IC50 against E. multilocularis SQR, Table 3, various side chain lengths; mean ± SEM
pIC50: −log10 of the molar value.

{"chemical.string": "CCCCC/C=C/c1c(O)c(Cl)c(C)c(C=O)c1O", "censoring.sign": "=", "pIC50": 6.02}
{"chemical.string": "C/C=C/c1c(O)c(Cl)c(C)c(C=O)c1O", "censoring.sign": "=", "pIC50": 5.27}
{"chemical.string": "Cc1c(Cl)c(O)cc(O)c1C=O", "censoring.sign": "<", "pIC50": 4.70}
{"chemical.string": "CCCCCCC/C=C/c1c(O)c(Cl)c(C)c(C=O)c1O", "censoring.sign": "=", "pIC50": 5.92}
{"chemical.string": "CCCCCCCCCC/C=C/c1c(O)c(Cl)c(C)c(C=O)c1O", "censoring.sign": "=", "pIC50": 5.77}
{"chemical.string": "CCC/C=C/c1c(O)c(Cl)c(C)c(C=O)c1O", "censoring.sign": "=", "pIC50": 5.48}
{"chemical.string": "CCCCCCCC/C=C/c1c(O)c(Cl)c(C)c(C=O)c1O", "censoring.sign": "=", "pIC50": 5.92}
